Biological target: hPEBP1 (Homo sapiens)
Construct: all residues except Met1, Val3, Asp35, Gln45, Lys47 and Lys187 (total residues: 187;); made in house; host or cells: E. coli BL21 (DE3), pET31b
Test: 15N-1H HSQC NMR titration of ligands with hPEBP1 (KD from CSP fitting)
Format: binding
Settings: MES 10 mM pH 6.5/20°C
property: Kd (µM)
Report as a plain number; the unit µM is understood.

> print(dat)
                                   compound  property  measure.unit  assay.result
1  Cc1cc2nc3c(=O)[nH]c(=O)nc-3n(C[C@H](O)[C@H](O)[C@H](O)COP(=O)(O)O)c2cc1C [FMN, flavin mononucleotide]        Kd            µM            14

Consider now this further compound.
Input: Value lookup for Kd; key = Nc1nc2c(ncn2[C@@H]2O[C@H](COP(=O)(O)OP(=O)(O)OP(=O)(O)O)[C@@H](O)[C@H]2O)c(=O)[nH]1 [GTP, Guanosine triphosphate]
Output: 669

* * *

Target: hPEBP1 (Homo sapiens, UniProt P30086)
Construct: all residues except Met1, Val3, Asp35, Gln45, Lys47 and Lys187 (total residues: 187;); made in house; host or cells: E. coli BL21 (DE3), pET31b
Sequence (P30086 whole entry): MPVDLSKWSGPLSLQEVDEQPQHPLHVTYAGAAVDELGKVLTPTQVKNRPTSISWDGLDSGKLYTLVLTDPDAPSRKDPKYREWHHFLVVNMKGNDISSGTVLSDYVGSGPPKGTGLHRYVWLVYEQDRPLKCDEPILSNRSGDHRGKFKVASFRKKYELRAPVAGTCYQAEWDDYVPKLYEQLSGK
Assay: Native mass spectrometry KD determination (bound protein fraction)
Type: binding
Conditions: ammonium bicarbonate 20 mM pH 7.4/37°C, no NaCl; read-out: MS KD
Collected Kd values appear next to each entry.
Report as a plain number; the unit µM is understood.

> print(dat)
                                   compound  assay.result
1  Cc1cc2nc3c(=O)[nH]c(=O)nc-3n(C[C@H](O)[C@H](O)[C@H](O)COP(=O)(O)O)c2cc1C [FMN, flavin mononucleotide]             5

Consider now this further compound.
Input: # value lookup — system hPEBP1 (Homo sapiens, UniProt P30086), readout Kd, item Nc1nc2c(ncn2[C@@H]2O[C@H](COP(=O)(O)OP(=O)(O)OP(=O)(O)O)[C@@H](O)[C@H]2O)c(=O)[nH]1 [GTP, Guanosine triphosphate]
Output: 89

* * *

Biological target: hPEBP1 (Homo sapiens, UniProt P30086)
Construct: all residues except Met1, Val3, Asp35, Gln45, Lys47 and Lys187 (total residues: 187;); made in house; host or cells: E. coli BL21 (DE3), pET31b
Experiment: 15N-1H HSQC NMR titration of ligands with hPEBP1 (KD from CSP fitting)
Assay type: binding
Conditions: HEPES 10 mM pH 7.5/NaCl 100 mM/30°C (near physiological conditions)
property: Kd (µM)
Report as a plain number; the unit µM is understood.

# example entries with known answers
> print(dat)
                                   compound                          system.tested  property  measure.unit  assay.result
1  O=C1N[C@@H](Cc2ccccc2)CO1 [locostatin precursor, (S)-4-benzyl-2-oxazolidinone]  hPEBP1 (Homo sapiens, UniProt P30086)        Kd            µM           173
2  Nc1nc2c(ncn2[C@@H]2O[C@H](COP(=O)(O)OP(=O)(O)OP(=O)(O)O)[C@@H](O)[C@H]2O)c(=O)[nH]1 [GTP, Guanosine triphosphate]  hPEBP1 (Homo sapiens, UniProt P30086)        Kd            µM          3420

Consider now this further compound.
Input: Value lookup for Kd; key = Cc1cc2nc3c(=O)[nH]c(=O)nc-3n(C[C@H](O)[C@H](O)[C@H](O)COP(=O)(O)O)c2cc1C [FMN, flavin mononucleotide]
Output: 252
